This listing pairs binders with measured % double-positive cells vs WT.
- system_name: T1, mTfR-1 T228A on Expi293 cells (mouse, UniProt Q62351 1-763)
- T1 construct: whole, on cells
- method: FACS, transfected Expi293 cells
parameter: % double-positive cells vs WT

binder | parameter | measurement
Clone C VNAR-hFc fusion (Fc fusion, not shown: a dimerising Fc or GST, bivalent VNAR-Fc; also called Clone C-hFc) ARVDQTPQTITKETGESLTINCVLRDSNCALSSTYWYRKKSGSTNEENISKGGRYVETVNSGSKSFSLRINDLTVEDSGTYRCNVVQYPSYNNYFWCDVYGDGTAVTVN | % double-positive cells vs WT | 68%
Clone C variant 18 VNAR-hFc (Fc fusion, not shown: a dimerising Fc or GST, also called Clone C v18; Clone C var; 18) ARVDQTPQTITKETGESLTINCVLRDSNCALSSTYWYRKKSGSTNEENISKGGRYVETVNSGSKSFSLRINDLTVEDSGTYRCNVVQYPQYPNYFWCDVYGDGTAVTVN | % double-positive cells vs WT | 45%
Clone C variant 13 VNAR-hFc (Fc fusion, not shown: a dimerising Fc or GST, also called Clone C v13; Clone C var; 13) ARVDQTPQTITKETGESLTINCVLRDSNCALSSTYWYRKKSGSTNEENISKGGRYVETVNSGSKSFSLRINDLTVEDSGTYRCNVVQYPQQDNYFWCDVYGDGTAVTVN | % double-positive cells vs WT | 65%
8D3 antibody (anti-mouse TfR-1 control; 8D3-hFc formatted antibody) (antibody, V domains shown) VH: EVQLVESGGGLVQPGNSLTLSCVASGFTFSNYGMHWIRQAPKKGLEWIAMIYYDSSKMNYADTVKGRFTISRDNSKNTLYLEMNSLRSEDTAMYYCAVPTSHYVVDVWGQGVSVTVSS VL: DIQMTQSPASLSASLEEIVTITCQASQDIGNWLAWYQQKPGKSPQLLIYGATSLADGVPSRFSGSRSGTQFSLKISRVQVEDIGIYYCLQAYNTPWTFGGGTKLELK | % double-positive cells vs WT | 89%
